test: in vitro; settings: human
MEASURED METRIC: CC50 at 72 h (µM)
Answers are plain numbers, in µM.

Known results for compounds:
>>> reading("CS(=O)(=O)c1ncn(-c2cc(F)c(COc3ccc(OS(=O)(=O)F)cc3)c(F)c2)n1 [Compound 20i]")
9.3
>>> reading("O=S(=O)(F)Oc1ccc(OCc2ccc(-n3cncn3)cc2)cc1 [Compound 3a]")
19.3
>>> reading("O=S(=O)(F)Oc1ccc(OCc2c(F)cc(-n3ccnn3)cc2F)cc1 [Compound 3 l]")
17

CC50 at 72 h recorded for this compound, Cc1nc(C)n(-c2cc(F)c(COc3ccc(OS(=O)(=O)F)cc3)c(F)c2)n1 [Compound 20e] , is 8.1

###

For each entry below, report its MIC value.
test system: Mtb H37Rv; assay: MIC determination in Mtb H37Rv, Microdilution Alamar Blue Assay (MABA); type: cell-based, Mycobacterium tuberculosis; details: Mycobacterium tuberculosis, H37RV, 168 h, Mtb H37Rv, MABA, 7 days

Known results for molecules:
>>> reading("O=S(=O)(F)Oc1ccc(OCc2c(F)cc(-n3cncn3)cc2F)cc1")
"0.6 µM"
>>> reading("CC(C)S(=O)(=O)Nc1ncn(-c2cc(F)c(COc3ccc(OS(=O)(=O)F)cc3)c(F)c2)n1 [Compound 21e]")
"0.31 µM"
>>> reading("O=S(=O)(F)Oc1ccc(OCc2c(F)cc(-c3nnn[nH]3)cc2F)cc1")
"5 µM"

Now take the following molecule into account.
MIC recorded for this molecule, `O=S(=O)(F)Oc1ccc(OCc2c(F)cc(-n3nccn3)cc2F)cc1` , is 1.23 µM

###

For each entry below, report its CC50 at 72 h value.
test: HEK293T cytotoxicity assay (Cell Titer-Glo); type: cell-based; details: human, HEK293T cells; HEK293T, 3 days
One number for each entry, in µM.

Known results for compounds:
>>> reading("O=S(=O)(F)Oc1ccc(OCc2c(F)cc(-n3cnnn3)cc2F)cc1 [Compound 19 g]")
13.2
>>> reading("CS(=O)(=O)c1ncn(-c2cc(F)c(COc3ccc(OS(=O)(=O)F)cc3)c(F)c2)n1 [Compound 20i]")
17.2
>>> reading("O=S(=O)(F)Oc1ccc(OCc2ccc(-n3cncn3)cc2)cc1Cl [Compound 3c]")
3.7
>>> reading("Cn1ccnc1-c1cc(F)c(COc2ccc(OS(=O)(=O)F)cc2)c(F)c1 [Compound 19e]")
26

For each of the compounds below, state CC50 at 72 h.
1. Cc1ncn(-c2cc(F)c(COc3ccc(OS(=O)(=O)F)cc3)c(F)c2)n1 [Compound 20a]
2. CC(C)(C)c1ncn(-c2cc(F)c(COc3ccc(OS(=O)(=O)F)cc3)c(F)c2)n1 [Compound 20d]
3. O=S(=O)(F)Oc1ccc(OCc2cc(F)c(-n3cncn3)cc2F)cc1 [Compound 3 h]

## Result
1. 17.1
2. 13.7
3. 21.6

###

For each entry below, report its log10(MIC) value.
test system: Mtb H37Rv; test: MIC determination in Mtb H37Rv, Microdilution Alamar Blue Assay (MABA); format: cell-based, Mycobacterium tuberculosis; details: Mycobacterium tuberculosis, H37RV, 168 h, Mtb H37Rv, MABA, 7 days
// units: µM (pre-log); metric: MIC; scale: log10

Known results for molecules:
>>> reading("CC(C)(C)c1ncn(-c2cc(F)c(COc3ccc(OS(=O)(=O)F)cc3)c(F)c2)n1 [Compound 20d]")
0.08
>>> reading("N#Cc1cc(-n2cncn2)cc(F)c1COc1ccc(OS(=O)(=O)F)cc1 [Compound 3j]")
0.70
>>> reading("CCc1ncn(-c2cc(F)c(COc3ccc(OS(=O)(=O)F)cc3)c(F)c2)n1 [Compound 20b]")
-0.22
>>> reading("CS(=O)(=O)c1ncn(-c2cc(F)c(COc3ccc(OS(=O)(=O)F)cc3)c(F)c2)n1 [Compound 20i]")
-0.40
>>> reading("O=S(=O)(F)Oc1ccc(OCc2ccc(-n3cncn3)c(F)c2)cc1 [Compound 3e]")
0.40
>>> reading("NS(=O)(=O)c1ncn(-c2cc(F)c(COc3ccc(OS(=O)(=O)F)cc3)c(F)c2)n1 [Compound 20 l]")
-0.33
>>> reading("CCS(=O)(=O)Nc1ncn(-c2cc(F)c(COc3ccc(OS(=O)(=O)F)cc3)c(F)c2)n1 [Compound 21d]")
-1.10
>>> reading("O=S(=O)(F)Oc1ccc(OCc2c(F)cc(-n3ccnn3)cc2F)cc1 [Compound 3 l]")
-0.80
>>> reading("O=S(=O)(F)Oc1ccc(OCc2cc(F)c(-n3cncn3)c(F)c2)cc1 [Compound 3 g]")
1.00
>>> reading("Cc1nc(C)n(-c2cc(F)c(COc3ccc(OS(=O)(=O)F)cc3)c(F)c2)n1 [Compound 20e]")
-0.64

For each of the molecules below, state log10(MIC).
1. O=S(=O)(F)Oc1ccc(OCc2ccc(-n3cncn3)c(F)c2F)cc1 [Compound 3f]
2. N#Cc1ncn(-c2cc(F)c(COc3ccc(OS(=O)(=O)F)cc3)c(F)c2)n1 [Compound 20 g]
3. NC(=O)c1ncn(-c2cc(F)c(COc3ccc(OS(=O)(=O)F)cc3)c(F)c2)n1 [Compound 20 k]

## Result
1. 0.10
2. -0.35
3. -0.77
